Hello, the source for this data is patent US6906033, in case you need it.

# key: entry, value: log10 Ki
# Measured Target: T1, human factor XIIa (human, UniProt P00748 20-615, biotinylated with Biotin Ester (Zymed); sites not stated)
# T1 chain: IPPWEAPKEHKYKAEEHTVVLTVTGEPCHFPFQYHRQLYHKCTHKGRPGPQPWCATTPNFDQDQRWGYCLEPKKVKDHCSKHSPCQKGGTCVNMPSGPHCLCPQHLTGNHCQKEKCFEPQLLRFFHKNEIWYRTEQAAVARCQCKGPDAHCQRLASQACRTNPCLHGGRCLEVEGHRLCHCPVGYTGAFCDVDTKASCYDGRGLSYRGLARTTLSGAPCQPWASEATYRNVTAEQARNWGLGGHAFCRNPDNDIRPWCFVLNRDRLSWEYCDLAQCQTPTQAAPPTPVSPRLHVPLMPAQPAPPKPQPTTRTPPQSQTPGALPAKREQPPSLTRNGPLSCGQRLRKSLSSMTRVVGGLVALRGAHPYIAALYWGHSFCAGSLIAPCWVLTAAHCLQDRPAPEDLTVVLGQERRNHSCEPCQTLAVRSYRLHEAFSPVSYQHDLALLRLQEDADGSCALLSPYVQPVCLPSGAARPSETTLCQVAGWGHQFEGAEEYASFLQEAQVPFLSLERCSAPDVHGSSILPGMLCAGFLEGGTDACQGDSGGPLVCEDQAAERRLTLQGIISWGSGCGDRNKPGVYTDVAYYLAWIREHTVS
# Assay Procedure: enzyme inhibition
Hey, these are logged values: log10 of Ki, nM being the unit before logging.

Example cases with answers are listed next.
TW6183 (protein) EVVREVCSEQAETGPCRAMHFRWYFDVTEGKCAPFFYGGCGGNRNNFDTEEYCMAVCGSAI = 4.09
TW6190 (protein) EVVREVCSEQAETGPCRAAISRWYFDVTEGKCAPFFYGGCYGNRNNFDTEEYCMAVCGSAI = 2.77
TW6184 (protein) EVVREVCSEQAETGPCRAMHYRWYFDVTEGKCAPFFYGGCGGNRNNFDTEEYCMAVCGSAI = 4.15

Lab book: log10 Ki of TW6201 (protein) EVVREVCSEQAETGPCRAGIYRWYFDVTEGKCAPFFYGGCGGNRNNFDTEEYCMAVCGSAI noted as 2.62

Query BG028 (protein) EVVREVCSEQAETGPCRALIYRWYFDVTEGKCAPFFYGGCGGNRNNFDTEEYCMAVCGSAI yields log10 Ki of 1.97
